Cited source for all entries: ChEMBL document CHEMBL3414499

- target.or.system: Retinal dehydrogenase 2 (Homo sapiens) (UniProt O94788)
- Sequence (O94788 whole entry): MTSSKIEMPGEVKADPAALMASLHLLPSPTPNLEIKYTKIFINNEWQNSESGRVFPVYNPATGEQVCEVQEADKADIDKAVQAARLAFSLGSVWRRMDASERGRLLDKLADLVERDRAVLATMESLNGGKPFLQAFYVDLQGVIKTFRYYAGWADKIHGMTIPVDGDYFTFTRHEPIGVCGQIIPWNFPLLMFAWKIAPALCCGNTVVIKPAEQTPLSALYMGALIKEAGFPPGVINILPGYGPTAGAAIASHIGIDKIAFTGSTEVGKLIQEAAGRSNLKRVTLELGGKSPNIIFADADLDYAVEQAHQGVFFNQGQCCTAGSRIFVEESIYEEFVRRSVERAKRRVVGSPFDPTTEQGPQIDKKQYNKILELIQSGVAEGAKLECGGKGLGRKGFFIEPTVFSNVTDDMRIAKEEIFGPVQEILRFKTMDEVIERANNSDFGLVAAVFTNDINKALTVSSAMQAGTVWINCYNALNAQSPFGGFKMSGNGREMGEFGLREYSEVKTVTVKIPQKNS
- assay.overview: Inhibition of recombinant human ALDH1A2 using propionaldehyde as substrate at 100 uM preincubated for 2 mins with NAD+ followed by substrate addition by UV-Vis spectrophotometric analysis
Calls of active or inactive are those of the source. The rule behind the calls is not given here.
recorded.metric: inhibition

compound.string: CC(C)CCn1c(CN2CCOCC2)nc2c1c(=O)n(C)c(=O)n2C
inhibition: inactive

compound.string: CCCCn1c(CN2CCN(c3ccc(OC)cc3)CC2)nc2c1c(=O)n(C)c(=O)n2C
inhibition: inactive

compound.string: Cn1c(=O)c2c(nc(CN3CCC(C(N)=O)CC3)n2CCCc2ccccc2)n(C)c1=O
inhibition: inactive

compound.string: Cn1c(=O)c2c(nc(SCC(N)=O)n2Cc2ccccc2F)n(C)c1=O
inhibition: inactive

Output inhibition of CCN1CCN(Cc2nc3c(c(=O)n(C)c(=O)n3C)n2CC(=O)c2ccccc2)CC1 inactive

Tell me inhibition reported for Cn1c(=O)c2c(ncn2C)n(C)c1=O inactive

* * *

- target.or.system: Aldehyde dehydrogenase 1A1 (Homo sapiens)
- Sequence (P00352 whole entry): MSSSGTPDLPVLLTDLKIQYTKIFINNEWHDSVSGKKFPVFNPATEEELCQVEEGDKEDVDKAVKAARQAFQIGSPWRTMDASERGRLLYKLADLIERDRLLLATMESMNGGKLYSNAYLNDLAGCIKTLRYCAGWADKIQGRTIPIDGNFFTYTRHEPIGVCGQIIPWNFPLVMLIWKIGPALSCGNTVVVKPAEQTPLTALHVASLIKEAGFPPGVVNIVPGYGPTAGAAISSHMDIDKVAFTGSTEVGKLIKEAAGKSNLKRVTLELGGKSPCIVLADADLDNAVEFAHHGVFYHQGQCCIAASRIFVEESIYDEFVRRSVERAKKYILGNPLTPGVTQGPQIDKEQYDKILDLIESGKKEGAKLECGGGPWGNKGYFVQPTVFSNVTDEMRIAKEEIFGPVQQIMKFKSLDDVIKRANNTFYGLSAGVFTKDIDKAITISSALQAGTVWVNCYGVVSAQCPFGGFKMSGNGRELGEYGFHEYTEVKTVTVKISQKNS
- assay.overview: Inhibition of recombinant human ALDH1A1 using propionaldehyde as substrate preincubated for 2 mins with NAD+ followed by substrate addition by UV-Vis spectrophotometric analysis
recorded.metric: IC50 (µM)
Record the value in µM, omitting the unit from your answer.

Return reported IC50. Input molecule: Cn1c(=O)c2c(nc(SCC(N)=O)n2Cc2ccccc2F)n(C)c1=O 14

Complete the entry with IC50 for CCCCn1c(Oc2ccc(C(=O)OC)cc2)nc2c1c(=O)n(C)c(=O)n2C 5.2

Give me measured IC50, please, for this molecule: CC(C)CCn1c(CN(C)Cc2ccccc2)nc2c1c(=O)n(C)c(=O)n2C 3.4

* * *

- target.or.system: Aldehyde dehydrogenase, dimeric NADP-preferring (Homo sapiens) (UniProt P30838)
- Sequence (whole entry): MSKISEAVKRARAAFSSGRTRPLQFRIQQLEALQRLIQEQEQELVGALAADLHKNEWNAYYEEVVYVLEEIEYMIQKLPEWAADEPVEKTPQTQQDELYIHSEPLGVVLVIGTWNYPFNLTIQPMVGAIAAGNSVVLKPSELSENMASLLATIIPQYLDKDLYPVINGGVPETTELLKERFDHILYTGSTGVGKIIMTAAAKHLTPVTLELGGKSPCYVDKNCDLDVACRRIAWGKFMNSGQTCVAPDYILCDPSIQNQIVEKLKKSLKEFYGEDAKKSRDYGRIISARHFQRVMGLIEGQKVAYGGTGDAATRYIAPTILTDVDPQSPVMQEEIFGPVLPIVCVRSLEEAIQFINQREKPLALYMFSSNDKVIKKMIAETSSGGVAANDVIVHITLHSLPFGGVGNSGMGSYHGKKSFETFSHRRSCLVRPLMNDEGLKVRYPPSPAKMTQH
- assay.overview: Inhibition of recombinant human ALDH3A1 using benzaldehyde as substrate at 100 uM preincubated for 2 mins with NAD+ followed by substrate addition by UV-Vis spectrophotometric analysis
Active and inactive are the calls of the source. The rule behind the calls is not given here.
recorded.metric: inhibition

compound.string: CCN1CCN(Cc2nc3c(c(=O)n(C)c(=O)n3C)n2CC(=O)c2ccccc2)CC1
recorded.metric: inhibition
obs.value: inactive
--
compound.string: Cc1cccc(Cn2c(CN3CCN(C(=O)c4ccco4)CC3)nc3c2c(=O)n(C)c(=O)n3C)c1
recorded.metric: inhibition
obs.value: inactive
--
compound.string: Cn1c(=O)c2c(nc(CN3CCC(C(N)=O)CC3)n2CCCc2ccccc2)n(C)c1=O
recorded.metric: inhibition
obs.value: inactive
